# ASSAY SYSTEM: soluble IGF-1R (UniProt P08069)
# PROTOCOL DESCRIPTION: phage ELISA; IGF-1R ratio over background divided by IR ratio
No end group written: not given here.
Answer FALSE if IGF-1R/IR ratio comparison is under 2, and TRUE if it is 2 or more.

DYKDCGAKMTGTPNDPFYHKLSELLQRGAAAGAP (peptide, not shown: large carriers) [B6Hα-3-E6-IR] = FALSE
DYKDSRVAATKEKRPSDDPFYHKLSELLQGSAAAGAP (peptide, not shown: large carriers) [B6Hα-3-F7-IR] = TRUE
DYKDMNVFVSFYDAIDQLVCQRIGCAAAGAP (peptide, not shown: large carriers) [20E2A-4-G11-IGFR] = TRUE

Inquiry: Kindly determine if IGF-1R/IR ratio comparison recorded for DYKDAETSAQVGWQRLWSVWPGDHWSTLDPFYHKLSELLRESGAAAAGAP (peptide, not shown: large carriers) [B6L-3-G5-IR] is above or exactly 2.
Reply text: FALSE

Inquiry: Kindly determine if IGF-1R/IR ratio comparison recorded for DYKDVDTPAQVGWNRLWSVGPGEHWYTDDPFYHXLSELLRESGAAAAGAP (peptide, not shown: large carriers, not fully specified; X: residue not identified in the source) [B6L-3-G6-IR] is above or exactly 2.
Reply text: FALSE
